I'd be grateful if you could share measured TGI for these entries.
System: RPMI-8226 leukemia
Assay: NCI tumour cell line growth inhibition, 48 h

The compound listed as COc1cc(/C=C2/SC(c3ccccc3)N(c3cccc([N+](=O)[O-])c3)C2=O)cc(OC)c1OC (configuration not stated) shows TGI equal to > 100 µM

The measured TGI associated with CC#CC(O)(C(=O)OC1CCCN(C)C1)C1=CC=CCC1 (configuration not stated) reads > 100 µM

TGI recorded for this compound, CN1CCN(Cc2ccc(NC(=O)c3cncc(C#Cc4cnc(N)c5ccc(F)cc45)c3)cc2C(F)(F)F)CC1 , is 26.2 µM

Lab note: Cc1nc2ccc(C(F)(F)F)cc2nc1Nc1ccc(Cl)c(Cl)c1 gave TGI of 88.1 µM

// TGI value for CC(=O)CC1CCC(=O)CCC(=O)OC(CC(C)=O)CCC(=O)CCC(=O)O1 (configuration not stated) : > 100 µM

Query S=C(Nc1ccc(-c2nc3ccccc3[nH]2)cc1)NC1CCCCC1 yields TGI of 90.2 µM

The measured TGI associated with N#CCCc1nc2ccc(Br)cc2c(=O)n1CCO reads > 100 µM

O=C(c1ccco1)N(C(=S)OCc1ccccn1)c1ccccc1 yielded TGI of > 100 µM

# TGI (compound: COc1c/c(=C2/C=c3ccccc3=N2)[nH]/c1=C/c1[nH]c(C)cc1C ) is 1.95 µM

The compound listed as c1ccc2c(c1)[I+]c1ccccc1-2 has a reported TGI of > 50 µM

Sure, the documented TGI for N#CCc1nc(C#N)c(N)o1 is > 100 µM

Lookup result for CCCCNc1nc(NC(C)(C)C)nc(NC(C)(C)C)n1 ; measured TGI: > 100 µM

Measured TGI, COc1cc2c(cc1OCc1ccccc1)N=C[C@@H]1C/C(=C/C(=O)NCCCN3C(=O)c4cccc5cccc(c45)C3=O)CN1C2=O : > 100 µM

# TGI of O=c1oc2ccccc2c(O)c1/C=N\c1nc(-c2ccccc2)cs1 = 39.5 µM

Kindly note the recorded TGI for O=c1ccn(C2OC(CO)C(O)C2O)c(=O)[nH]1 (configuration not stated) , which is > 1000 µM

// TGI value for COc1cc(C2C3=C(COC3=O)OC(C)(C)Oc3cc4c(cc32)OCO4)cc(OC)c1OC (configuration not stated) : > 87.3 µM

// TGI lookup, compound = CCOc1ccccc1NC(=O)/C=C1\NC(=O)CS1 , result: > 100 µM

Record summary for CC1=C2C(O)C(C(C)CO)C(O)CC2(C)C(O)CC1 (configuration not stated) : reported TGI = > 100 µM

Memo: CC[N+](C)(CC)CCN1C(=O)c2ccccc2S1(=O)=O , reported TGI: > 100 µM

The compound listed as CCCCCCCCCCCCCCCCNc1nc(=O)n(C2CC(O)C(CO)O2)cc1F (configuration not stated) shows TGI equal to 37.6 µM

Record summary for CCOP(=O)(OCC)C(Nc1ccc(F)cc1)c1cccc([N+](=O)[O-])c1 (configuration not stated) : reported TGI = > 100 µM

Entry NC(=O)c1c[se]c(C2OC(CO)C(O)C2O)n1 (configuration not stated) ; TGI = > 100 µM
